molecular target: pre-pro-insulin glargine
Listing of entries alongside the reported Yield.

These solved cases illustrate the format of a correct answer.
protein: trypsin variant SEQ ID NO: 77 (protein) IVGGYTCAANSIPYQVSLNSGSHRCGGSLINSQWVVSAAHCYKPRIQVRLGEHNIHVLEGNEQFINAAKIITHPNFNGNTLDNDIMLIKLSSPATLNSHVATVSLPTSCAAAGTECLISGWGNTCSSGSSMPSLLQCLKAPVLSDSSCKSSYPGQITGNMICVGFLEGGKDACQGDSGGPVVCNGQLQGIVSSGYGCAQKNKPGVYTKVCNYVNWIQQTIAAN
result: > 90%
//
protein: trypsin variant SEQ ID NO: 103 (protein) IVGGYTCAANSIPYQVSLNSGSHRCGGSLINSQWVVSAAHCYKPRIQVRLGEHNIHVLEGNEQFINAAKIITHPNFNPNTLDNDIMLIKLSSPATLNSHVATVSLPTSCAAAGTECLISGWGNTSSSGSSMPSLLQCLKAPVLSDSSCKSSYPGQITGNMICVGFLEGGADSCQGDSGGPVVCNGQLQGIVSSGYGCAQKNKPGVYTKVCNYVNWIQQTIAAN
result: > 90%
//
protein: trypsin variant SEQ ID NO: 99 (protein) IVGGYTCAANSIPYQVSLNSGSHRCGGSLINSQWVVSAAHCYKSRIQVRLGEHNIHVLEGNEQFINAAKIITHPNFNPNTLDNDIMLIKLSSPATLNSNVATVSLPTSCAAAGTECLISGWGNTSSSGSSYPSLLQCLKAPVLSDSSCKSSYPGQITGNMICVGFLEGGADACQGDSGGPVVCNGQLQGIVSSGYGCAQKNKPGVYTKVCNYVNWIQQTIAAN
result: > 90%
//
protein: trypsin variant SEQ ID NO: 81 (protein) IVGGYTCAANSIPYQVSLNSGSHRCGGSLINSQWVVSAAHCYKSRIQVRLGEHNIHVLEGNEQFINAAKIITHPNFNPNTLDNDIMLIKLSSPATLNSHVATVSLPTSCAAAGTECLISGWGNTASSGSSMPSLLQCLKAPVLSDSSCKSSYPGQITGNMICVGFLEGGKDACQGDSGGPVVCNGQLQGIVSSGYGCAQKNKPGVYTKVCNYVNWIQQTIAAN
result: > 90%

Kindly review the next protein as well.
Inquiry: Tell me Yield reported for trypsin variant SEQ ID NO: 96 (protein) IVGGYTCAANSIPYQVSLNSGSHRCGGSLINSQWVVSAAHCYKPRIQVRLGEHNIDVLEGNEQFINAAKIITHPNFNPNTLDNDIMLIKLSSPATLNSHVATVSLPRSCAAAGTECLISGWGNTSSSGSSMPSLLQCLKAPVLSDSSCKSSYPGQITGNMICVGFLEGGADACQGDSGGPVVCNGQLQGIVSSGYGCAQKNKPGVYTKVCNYVNWIQQTIAAN
Reply text: > 80%
